SYSTEM NAME: T1, human IL4Rα expressed on 293F-IL4Rα cells (human, UniProt P24394 26-825)
T1 construct: whole, on cells; also called cell surface human IL4Rα
EXPERIMENT: flow cytometry on 293F-IL4Rα cells
METRIC NAME: EC50 (nM)
Entry rule: numbers only, all in nM.

Query :: Find the recorded EC50 belonging to mouse antibody B8G11F2B7G5E8 (antibody, V domains shown, Mouse hybridoma mAb; also called Mouse B8G11F2B7G5E8; mAb B8G11F2B7G5E8) VH: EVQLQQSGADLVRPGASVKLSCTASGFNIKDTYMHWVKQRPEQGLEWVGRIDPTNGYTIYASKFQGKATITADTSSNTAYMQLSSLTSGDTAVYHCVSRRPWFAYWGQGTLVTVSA VL: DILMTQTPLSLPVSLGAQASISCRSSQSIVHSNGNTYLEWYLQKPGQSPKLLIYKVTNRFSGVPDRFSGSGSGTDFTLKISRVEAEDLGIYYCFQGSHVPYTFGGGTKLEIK and report it.
Result :: 0.412
